Tested on: MDA-MB-436
PROTOCOL NOTES: Antiproliferative activity against human MDA-MB-436 cells expressing AXL assessed as inhibition of cell growth incubated for 72 hrs by CCK8 assay
Type: functional, cell-based
MEASUREMENT PARAMETERS: MDA-MB-436, 72 h
pIC50: −log10 of the molar value.
ENDPOINT LABEL: pIC50

For the molecule CCc1ccc2c(c1)c(=O)c(C(=O)Nc1ccc(Oc3ncnc4cc(OCCCCCC(=O)Nc5ccc6c(c5)CN(C5CCC(=O)NC5=O)C6=O)c(OC)cc34)c(F)c1)c(C)n2C (stereo not drawn) , give its reported pIC50.
8.30

// fetch pIC50 given entry CCc1ccc2c(c1)c(=O)c(C(=O)Nc1ccc(Oc3ncnc4cc(OCCCCCC(=O)Nc5ccc6c(c5)CN(C5CCC(=O)N(C)C5=O)C6=O)c(OC)cc34)c(F)c1)c(C)n2C (stereo not drawn)
< 5.30

Quick one: give measured pIC50 for `CCc1ccc2c(c1)c(=O)c(C(=O)Nc1ccc(Oc3ncnc4cc(OC)c(OC)cc34)c(F)c1)c(C)n2C`
< 5.30

====

ASSAYED SYSTEM: Protein cereblon/Tyrosine-protein kinase receptor UFO (Homo sapiens, UniProt P30530+Q96SW2)
Sequence (P30530 whole entry): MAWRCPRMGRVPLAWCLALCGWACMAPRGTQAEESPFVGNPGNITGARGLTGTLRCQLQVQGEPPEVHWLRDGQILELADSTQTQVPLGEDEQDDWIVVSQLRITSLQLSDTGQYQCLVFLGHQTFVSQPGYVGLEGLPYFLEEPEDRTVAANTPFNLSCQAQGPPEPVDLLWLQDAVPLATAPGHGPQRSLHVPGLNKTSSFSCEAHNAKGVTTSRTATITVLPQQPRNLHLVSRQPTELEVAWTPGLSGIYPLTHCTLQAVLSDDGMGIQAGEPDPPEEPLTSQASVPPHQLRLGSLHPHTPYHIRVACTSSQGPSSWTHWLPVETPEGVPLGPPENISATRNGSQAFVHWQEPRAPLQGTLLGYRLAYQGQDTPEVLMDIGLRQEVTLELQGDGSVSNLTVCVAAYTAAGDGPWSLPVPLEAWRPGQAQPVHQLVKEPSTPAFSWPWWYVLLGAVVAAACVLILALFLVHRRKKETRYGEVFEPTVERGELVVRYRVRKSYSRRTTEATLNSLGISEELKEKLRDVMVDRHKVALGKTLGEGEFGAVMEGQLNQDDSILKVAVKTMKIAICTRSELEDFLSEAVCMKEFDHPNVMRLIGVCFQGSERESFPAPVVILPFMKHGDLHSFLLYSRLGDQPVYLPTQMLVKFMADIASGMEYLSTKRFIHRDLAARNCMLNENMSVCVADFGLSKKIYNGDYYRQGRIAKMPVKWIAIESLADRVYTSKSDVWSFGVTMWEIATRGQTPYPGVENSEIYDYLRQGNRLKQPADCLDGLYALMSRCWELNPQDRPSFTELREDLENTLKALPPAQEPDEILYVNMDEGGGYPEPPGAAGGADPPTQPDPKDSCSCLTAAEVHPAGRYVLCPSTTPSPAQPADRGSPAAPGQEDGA
Sequence (Q96SW2 whole entry): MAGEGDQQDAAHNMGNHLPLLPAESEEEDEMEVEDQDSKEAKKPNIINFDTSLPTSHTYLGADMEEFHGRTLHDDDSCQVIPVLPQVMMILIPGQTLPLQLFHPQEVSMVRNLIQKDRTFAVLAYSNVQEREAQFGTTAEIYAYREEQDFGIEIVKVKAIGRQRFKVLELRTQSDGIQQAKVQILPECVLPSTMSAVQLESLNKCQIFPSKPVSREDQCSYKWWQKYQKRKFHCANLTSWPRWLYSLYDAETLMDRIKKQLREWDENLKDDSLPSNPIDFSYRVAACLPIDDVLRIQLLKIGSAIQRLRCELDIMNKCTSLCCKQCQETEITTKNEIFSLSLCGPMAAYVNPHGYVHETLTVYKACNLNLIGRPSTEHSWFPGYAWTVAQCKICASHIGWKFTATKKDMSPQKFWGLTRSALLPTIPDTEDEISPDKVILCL
PROTOCOL NOTES: PROTAC activity at CRBN/AXL in human MDA-MB-231 cells assessed as induction of AXL degradation incubated for 24 hrs by immunoblot analysis
pEC50: −log10 of the molar value.
Could you please report measured pEC50 for the items listed next?

Give reported pEC50 value for CCc1ccc2c(c1)c(=O)c(C(=O)Nc1ccc(Oc3ncnc4cc(OCCCCCC(=O)Nc5cccc6c5C(=O)N(C5CCC(=O)NC5=O)C6)c(OC)cc34)c(F)c1)c(C)n2C (stereo unspecified)
< 5.00

Indicate the recorded pEC50 value for this compound: CCc1ccc2c(c1)c(=O)c(C(=O)Nc1ccc(Oc3ncnc4cc(OCCCCCCCC(=O)Nc5cccc6c5C(=O)N(C5CCC(=O)NC5=O)C6=O)c(OC)cc34)c(F)c1)c(C)n2C (stereo unspecified)
< 5.00

Determine from records and report pEC50 for CCc1ccc2c(c1)c(=O)c(C(=O)Nc1ccc(Oc3ncnc4cc(OCCCCCCCCCCCC(=O)Nc5ccc6c(c5)C(=O)N(C5CCC(=O)NC5=O)C6=O)c(OC)cc34)c(F)c1)c(C)n2C (stereo unspecified)
< 5.00

Return value of pEC50 for input CCc1ccc2c(c1)c(=O)c(C(=O)Nc1ccc(Oc3ncnc4cc(OCCCCCC(=O)Nc5cccc6c5C(=O)N(C5CCC(=O)NC5=O)C6=O)c(OC)cc34)c(F)c1)c(C)n2C (stereo unspecified) , no commentary.
< 5.00

Specify measured pEC50 for CCc1ccc2c(c1)c(=O)c(C(=O)Nc1ccc(Oc3ncnc4cc(OCC(=O)Nc5cccc6c5C(=O)N(C5CCC(=O)NC5=O)C6=O)c(OC)cc34)c(F)c1)c(C)n2C (stereo unspecified) .
< 5.00

// fetch pEC50 given entry CCc1ccc2c(c1)c(=O)c(C(=O)Nc1ccc(Oc3ncnc4cc(OCCCCC(=O)Nc5ccc6c(c5)C(=O)N(C5CCC(=O)NC5=O)C6=O)c(OC)cc34)c(F)c1)c(C)n2C (stereo unspecified)
< 5.00

Give the reported pEC50 for this compound. CCc1ccc2c(c1)c(=O)c(C(=O)Nc1ccc(Oc3ncnc4cc(OCCCCCCCCCCCC(=O)Nc5cccc6c5C(=O)N(C5CCC(=O)NC5=O)C6=O)c(OC)cc34)c(F)c1)c(C)n2C (stereo unspecified)
< 5.00

Please give the documented pEC50 of CCc1ccc2c(c1)c(=O)c(C(=O)Nc1ccc(Oc3ncnc4cc(OCCCCCCCCCC(=O)Nc5ccc6c(c5)C(=O)N(C5CCC(=O)NC5=O)C6=O)c(OC)cc34)c(F)c1)c(C)n2C (stereo unspecified)
< 5.00

Consider the compound CCc1ccc2c(c1)c(=O)c(C(=O)Nc1ccc(Oc3ncnc4cc(OCCCCCC(=O)Nc5ccc6c(c5)C(=O)N(C5CCC(=O)NC5=O)C6=O)c(OC)cc34)c(F)c1)c(C)n2C (stereo unspecified) . State its measured pEC50.
7.40

Provide pEC50 value for the following compound: CCc1ccc2c(c1)c(=O)c(C(=O)Nc1ccc(Oc3ncnc4cc(OCCCCCC(=O)Nc5cccc6c5CN(C5CCC(=O)NC5=O)C6=O)c(OC)cc34)c(F)c1)c(C)n2C (stereo unspecified)
< 5.00

Fill in pEC50 for record CCc1ccc2c(c1)c(=O)c(C(=O)Nc1ccc(Oc3ncnc4cc(OCCCCCC(=O)Nc5ccc6c(c5)C(=O)N(C5CCC(=O)NC5=O)C6)c(OC)cc34)c(F)c1)c(C)n2C (stereo unspecified)
< 5.00

Provide pEC50 value for the following compound: CCc1ccc2c(c1)c(=O)c(C(=O)Nc1ccc(Oc3ncnc4cc(OCC(=O)Nc5ccc6c(c5)C(=O)N(C5CCC(=O)NC5=O)C6=O)c(OC)cc34)c(F)c1)c(C)n2C (stereo unspecified)
< 5.00

Please look at this compound and report its pEC50: CCc1ccc2c(c1)c(=O)c(C(=O)Nc1ccc(Oc3ncnc4cc(OCCCCCC(=O)Nc5ccc6c(c5)CN(C5CCC(=O)NC5=O)C6=O)c(OC)cc34)c(F)c1)c(C)n2C (stereo unspecified)
8.30

Annotate the compound CCc1ccc2c(c1)c(=O)c(C(=O)Nc1ccc(Oc3ncnc4cc(OCCCCC(=O)Nc5cccc6c5C(=O)N(C5CCC(=O)NC5=O)C6=O)c(OC)cc34)c(F)c1)c(C)n2C (stereo unspecified) with its measured pEC50.
< 5.00

Specify reported pEC50 for the compound shown: CCc1ccc2c(c1)c(=O)c(C(=O)Nc1ccc(Oc3ncnc4cc(OCCCCCCCC(=O)Nc5ccc6c(c5)C(=O)N(C5CCC(=O)NC5=O)C6=O)c(OC)cc34)c(F)c1)c(C)n2C (stereo unspecified)
6.97

Please report pEC50 for the following compound: CCc1ccc2c(c1)c(=O)c(C(=O)Nc1ccc(Oc3ncnc4cc(OCCCCCCCCCC(=O)Nc5cccc6c5C(=O)N(C5CCC(=O)NC5=O)C6=O)c(OC)cc34)c(F)c1)c(C)n2C (stereo unspecified)
< 5.00

====

Here we list compounds with their recorded IC50 when tested on UniProtKB Q9UM73.
Sequence (Q9UM73 whole entry): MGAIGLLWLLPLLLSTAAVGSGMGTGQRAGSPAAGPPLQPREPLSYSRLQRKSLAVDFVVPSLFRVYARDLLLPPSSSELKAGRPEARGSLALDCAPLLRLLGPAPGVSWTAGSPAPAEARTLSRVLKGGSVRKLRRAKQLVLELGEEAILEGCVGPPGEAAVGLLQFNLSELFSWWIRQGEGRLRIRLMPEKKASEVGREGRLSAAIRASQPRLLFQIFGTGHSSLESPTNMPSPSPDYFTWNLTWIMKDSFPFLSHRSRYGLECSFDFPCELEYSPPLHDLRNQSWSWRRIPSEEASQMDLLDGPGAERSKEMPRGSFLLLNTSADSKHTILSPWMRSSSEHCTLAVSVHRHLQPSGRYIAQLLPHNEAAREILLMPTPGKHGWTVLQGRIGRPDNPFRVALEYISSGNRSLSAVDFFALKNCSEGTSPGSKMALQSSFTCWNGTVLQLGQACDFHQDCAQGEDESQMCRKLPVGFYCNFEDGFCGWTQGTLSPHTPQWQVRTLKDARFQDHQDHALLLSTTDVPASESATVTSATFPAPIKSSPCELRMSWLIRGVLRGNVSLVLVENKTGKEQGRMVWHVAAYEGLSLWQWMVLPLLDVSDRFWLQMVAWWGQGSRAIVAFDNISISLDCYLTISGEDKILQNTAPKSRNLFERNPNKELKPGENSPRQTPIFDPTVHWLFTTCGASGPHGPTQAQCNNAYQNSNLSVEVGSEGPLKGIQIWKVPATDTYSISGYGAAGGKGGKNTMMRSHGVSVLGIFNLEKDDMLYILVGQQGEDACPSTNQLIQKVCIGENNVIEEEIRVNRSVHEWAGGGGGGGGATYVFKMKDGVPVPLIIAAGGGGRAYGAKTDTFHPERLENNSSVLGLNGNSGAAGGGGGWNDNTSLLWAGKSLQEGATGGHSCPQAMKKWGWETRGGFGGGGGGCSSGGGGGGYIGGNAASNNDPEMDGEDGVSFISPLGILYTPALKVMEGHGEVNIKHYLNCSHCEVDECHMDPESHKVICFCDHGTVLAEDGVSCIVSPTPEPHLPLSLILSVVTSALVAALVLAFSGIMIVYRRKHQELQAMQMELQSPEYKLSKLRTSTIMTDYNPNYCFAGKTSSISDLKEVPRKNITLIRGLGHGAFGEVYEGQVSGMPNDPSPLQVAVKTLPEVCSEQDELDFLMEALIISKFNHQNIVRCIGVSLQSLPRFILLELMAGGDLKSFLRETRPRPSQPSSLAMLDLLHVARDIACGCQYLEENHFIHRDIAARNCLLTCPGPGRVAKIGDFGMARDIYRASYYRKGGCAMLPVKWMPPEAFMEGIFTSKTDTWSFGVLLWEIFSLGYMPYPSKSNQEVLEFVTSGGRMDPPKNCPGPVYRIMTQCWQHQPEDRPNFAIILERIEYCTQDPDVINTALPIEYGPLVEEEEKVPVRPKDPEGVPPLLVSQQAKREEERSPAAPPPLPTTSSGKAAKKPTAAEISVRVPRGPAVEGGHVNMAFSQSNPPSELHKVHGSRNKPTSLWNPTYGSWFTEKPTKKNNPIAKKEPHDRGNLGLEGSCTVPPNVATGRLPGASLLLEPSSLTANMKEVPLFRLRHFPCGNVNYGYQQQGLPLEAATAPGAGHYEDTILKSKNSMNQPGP
Returns: string containing the numeric result and its unit.

Report IC50, nothing else, for this compound: CCc1ccc2c(c1)c(=O)c(C(=O)Nc1ccc(Oc3ncnc4cc(OCCCCCC(=O)Nc5ccc6c(c5)CN(C5CCC(=O)NC5=O)C6=O)c(OC)cc34)c(F)c1)c(C)n2C (configuration not stated)
4.94 nM

Read the entry `CCc1ccc2c(c1)c(=O)c(C(=O)Nc1ccc(Oc3ncnc4cc(OC)c(OC)cc34)c(F)c1)c(C)n2C` and write its reported IC50.
4.92 nM
